Molecular target: human ALK5 (kinase domain, ALK5 T204D) (Homo sapiens, UniProt P36897, T204D)
Construct: The kinase domain of human ALK5 (amino acids 200-503)
Assay: ALK5 kinase assay ([33P] phosphate incorporation into casein)
Details: casein substrate, 1 μM unlabelled ATP
pIC50: −log10 of the molar value.
reported property: pIC50

compound	readout number
Cc1cccc(-c2nc(-c3cncc(-c4cccc(N5CCCC5)c4)c3)c3cc[nH]c3n2)n1 [Example 18]	6.76
Cc1cccc(-c2nc(-c3cncc(-c4cccc(CN5CCN(C)CC5)c4)c3)c3cc[nH]c3n2)n1 [Example 10]	7.30
Cc1cccc(-c2cc(-c3cncc(-c4ccc(CNCC(=O)O)cc4)c3)c3cc[nH]c3n2)n1 [Example 136]	8.00
Cc1cccc(-c2nc(-c3cncc(N4CCC(O)CC4)c3)c3cc[nH]c3n2)n1 [Example 49]	5.97
CNCc1cccc(-c2cncc(-c3nc(-c4cccc(C)n4)nc4[nH]ccc34)c2)c1 [Example 36]	8.10
Cc1cccc(-c2nc(-c3cncc(-c4ccc(C(=O)N5CCNCC5)cc4)c3)c3cc[nH]c3n2)n1 [Example 40]	8.52
Cc1cccc(-c2cc(-c3cncc(-c4ccc([C@@H](C)N)cc4)c3)c3cc[nH]c3n2)n1 [Example 128]	7.89
Cc1cccc(-c2nc(-c3cncc(N4CCOCC4)c3)c3cc[nH]c3n2)n1 [Example 51]	6.18

P. Cc1cccc(-c2nc(-c3cncc(NC(=O)CCO)c3)c3cc[nH]c3n2)n1 [Example 54]
Q. Cc1cccc(-c2nc(-c3cncc(-c4cccc(CNCC(=O)O)c4)c3)c3cc[nH]c3n2)n1 [Example 148]
R. Cc1cccc(-c2nc(-c3cncc(-c4cncc(CO)c4)c3)c3cc[nH]c3n2)n1 [Example 78]
S. Cc1cccc(-c2nc(-c3cncc4c3CCCO4)c3cc[nH]c3n2)n1 [Example 126]
Q: Order the records by pIC50, with each subsequent value no larger than the one before. Answer format: the labels, ordered as requested.
A: Q, R, P, S

###

Target: human ALK5 (kinase domain, ALK5 T204D) (Homo sapiens, UniProt P36897, T204D)
Construct: The kinase domain of human ALK5 (amino acids 200-503)
Assay: ALK5 kinase assay ([33P] phosphate incorporation into casein)
Conditions: casein substrate, 1 μM unlabelled ATP
pIC50: −log10 of the molar value.
reported property: pIC50

A. COC(=O)CN(C)Cc1ccc(-c2cncc(-c3cc(-c4cccc(C)n4)nc4[nH]ccc34)c2)cc1
B. Cc1cccc(-c2cc(-c3cncc(N)c3)c3cc[nH]c3n2)n1
C. CCNC(=O)c1cncc(-c2nc(-c3cccc(C)n3)nc3[nH]ccc23)c1
D. Cc1cccc(-c2nc(-c3cncc(-c4ccccc4)c3)c3cc[nH]c3n2)n1
E. Cc1cccc(-c2nc(-c3cnccc3C)c3cc[nH]c3n2)n1
Q: # ascending order, key=pIC50 Answer format: the labels, ordered as requested.
A: E, C, B, D, A
(E: 6.09, C: 6.44, B: 7.18, D: 7.47, A: 8.00)

I. COC(=O)CNCc1ccc(-c2cncc(-c3nc(-c4cccc(C)n4)nc4[nH]ccc34)c2)cc1
II. Cc1cccc(-c2cc(-c3cncc(OC(C)C)c3)c3cc[nH]c3n2)n1
Q: Quick check, higher pIC50 between I and II ? Return value: the label identifying the chosen record.
A: I

I. Cc1cccc(-c2cc(-c3cncc(-c4ccc(C(C)N)cc4)c3)c3cc[nH]c3n2)n1 (centres unmarked)
II. Cc1cccc(-c2nc(-c3cncc(-c4cccc(C(C)(C)N)c4)c3)c3cc[nH]c3n2)n1
Q: Dear colleague, could you let me know whether I or II has the lower recorded pIC50? Thanks. Return value: the label identifying the chosen record.
A: II
(II: 7.00, I: 8.15)

###

Target: human ALK5 (kinase domain, ALK5 T204D) (Homo sapiens, UniProt P36897, T204D)
Construct: The kinase domain of human ALK5 (amino acids 200-503); made in house; host or cells: insect cells (baculovirus)
Assay: ALK5 kinase assay ([33P] phosphate incorporation into casein)
Assay type: biochemical
Settings: casein substrate, 1 μM unlabelled ATP
reported property: IC50 (nM)

molecule smiles	unit abbrev	IC50
Cc1cccc(-c2cc(-c3cncc(-c4cccc(CN5CCOCC5)c4)c3)c3cc[nH]c3n2)n1	nM	66
Cc1cccc(-c2cc(-c3cncc(-c4ccc(CN5CC[C@H](N(C)C)C5)cc4)c3)c3cc[nH]c3n2)n1	nM	20
Cc1cccc(-c2cc(-c3cncc(-c4cccc(CNCCO)c4)c3)c3cc[nH]c3n2)n1	nM	5.3
Cc1cccc(-c2cc(-c3cncc(-c4cccc(CNCC(=O)O)c4)c3)c3cc[nH]c3n2)n1	nM	11
Cc1cccc(-c2cc(-c3cncc(-c4ccc(C(C)(C)N(C)C)cc4)c3)c3cc[nH]c3n2)n1	nM	5.9
Cc1cccc(-c2cc(-c3cncc(-c4cccc(CN5CCN(C)CC5)c4)c3)c3cc[nH]c3n2)n1	nM	12

P. Cc1cccc(-c2cc(-c3cncc(C4=CCCC4)c3)c3cc[nH]c3n2)n1
Q. Cc1cccc(-c2cc(-c3cncc(-c4ccc(C(C)(C)N(C)CCO)cc4)c3)c3cc[nH]c3n2)n1
Q: Quick check, higher IC50 between P and Q ? Return value: the label identifying the chosen record.
A: P
(P: 79 nM, Q: 6.6 nM)

###

Target: human ALK5 (kinase domain, ALK5 T204D) (Homo sapiens, UniProt P36897, T204D)
Construct: The kinase domain of human ALK5 (amino acids 200-503)
Test: ALK5 kinase assay ([33P] phosphate incorporation into casein)
Conditions: casein substrate, 1 μM unlabelled ATP
pIC50: −log10 of the molar value.
reported property: pIC50

Some compounds with recorded pIC50:
molecule smiles	pIC50
Cc1cccc(-c2cc(-c3cncc(-c4cccc(C(C)(C)N)c4)c3)c3cc[nH]c3n2)n1	7.57
Cc1cccc(-c2nc(-c3cncc(C4=CCNCC4)c3)c3cc[nH]c3n2)n1	6.36

A. Cc1cccc(-c2cc(-c3cncc(-c4ccc(CC(=O)O)cc4)c3)c3cc[nH]c3n2)n1
B. Cc1cccc(-c2cc(-c3cncc(-c4ccc(CN5CCOCC5)cc4)c3)c3cc[nH]c3n2)n1
Q: Quick check, higher pIC50 between A and B ? Return value: the label identifying the chosen record.
A: A
(A: 8.10, B: 7.70)

###

Target: human ALK5 (kinase domain, ALK5 T204D) (Homo sapiens, UniProt P36897, T204D)
Construct: The kinase domain of human ALK5 (amino acids 200-503)
Assay: ALK5 kinase assay ([33P] phosphate incorporation into casein)
Conditions: casein substrate, 1 μM unlabelled ATP
reported property: IC50 (nM)

Some compounds with recorded IC50:
molecule smiles	unit abbrev	IC50
Cc1cccc(-c2cc(-c3cncc(CO)c3)c3cc[nH]c3n2)n1	nM	812
Cc1cccc(-c2nc(-c3cncc(N)c3)c3cc[nH]c3n2)n1	nM	259
COc1ccccc1-c1cncc(-c2nc(-c3cccc(C)n3)nc3[nH]ccc23)c1	nM	478
CN1CCN(Cc2cccc(-c3cncc(-c4nc(-c5ccccn5)nc5[nH]ccc45)c3)c2)CC1	nM	19
Cc1cccc(-c2cc(-c3cncc(O)c3)c3cc[nH]c3n2)n1	nM	43

a. Cc1cccc(-c2nc(-c3cncc(-c4cccc(CN(C)CCO)c4)c3)c3cc[nH]c3n2)n1
b. Cc1cccc(-c2cc(-c3cncc(-c4ccc(CN5CC(O)C5)cc4)c3)c3cc[nH]c3n2)n1
Q: Dear colleague, could you let me know whether a or b has the lower recorded IC50? Thanks. Return value: the label identifying the chosen record.
A: b

###

Biological target: human ALK5 (kinase domain, ALK5 T204D) (Homo sapiens, UniProt P36897, T204D)
Construct: The kinase domain of human ALK5 (amino acids 200-503)
Sequence (P36897 200-503 T204D): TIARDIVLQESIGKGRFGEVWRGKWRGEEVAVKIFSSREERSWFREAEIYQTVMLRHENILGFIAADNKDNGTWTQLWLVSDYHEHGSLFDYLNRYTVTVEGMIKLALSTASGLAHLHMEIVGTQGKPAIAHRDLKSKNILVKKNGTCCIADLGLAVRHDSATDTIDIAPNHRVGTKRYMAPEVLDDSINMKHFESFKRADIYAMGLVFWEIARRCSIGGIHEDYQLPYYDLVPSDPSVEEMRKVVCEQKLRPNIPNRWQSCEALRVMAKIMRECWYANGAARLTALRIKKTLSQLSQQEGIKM
Experiment: ALK5 kinase assay ([33P] phosphate incorporation into casein)
Conditions: casein substrate, 1 μM unlabelled ATP
pIC50: −log10 of the molar value.
reported property: pIC50

compound	pIC50
CC(=O)NCCC(=O)Nc1cncc(-c2nc(-c3cccc(C)n3)nc3[nH]ccc23)c1	6.24
Cc1cccc(-c2nc(-c3cncc(-c4cccc(CN(C)C)c4)c3)c3cc[nH]c3n2)n1	7.48

A. Cc1cccc(-c2nc(-c3cncc(-c4ccccc4Cl)c3)c3cc[nH]c3n2)n1
B. Cc1cccc(-c2nc(-c3cncc(-c4cccc(CN5CCN(C(C)C)CC5)c4)c3)c3cc[nH]c3n2)n1
C. Cc1cccc(-c2nc(-c3cncc(C4=CCCC4)c3)c3cc[nH]c3n2)n1
D. Cc1cccc(-c2nc(-c3cncc(-c4ccc(N5CCCCC5)cc4)c3)c3cc[nH]c3n2)n1
Q: Order the records by pIC50, with each subsequent value no larger than the one before. Answer format: the labels, ordered as requested.
A: B, A, C, D
(B: 7.29, A: 7.05, C: 6.79, D: 6.03)

1. Cc1cccc(-c2cc(-c3cncc(N4CCN(C)CC4)c3)c3cc[nH]c3n2)n1
2. Cc1cccc(-c2cc(-c3cncc(-c4ccc(CN)cc4)c3)c3cc[nH]c3n2)n1
3. Cc1cccc(-c2nc(-c3cncc(-c4nnn[nH]4)c3)c3cc[nH]c3n2)n1
4. CC(=O)N1CC=C(c2cncc(-c3cc(-c4cccc(C)n4)nc4[nH]ccc34)c2)CC1
Q: Order the records by pIC50, with each subsequent value no larger than the one before. Answer format: the labels, ordered as requested.
A: 2, 4, 1, 3

1. C#Cc1cncc(-c2nc(-c3cccc(C)n3)nc3[nH]ccc23)c1
2. COC(=O)CNCc1cccc(-c2cncc(-c3nc(-c4cccc(C)n4)nc4[nH]ccc34)c2)c1
3. Cc1cccc(-c2nc(-c3cncc(-c4ccc(CN5CCN(C)CC5)cc4)c3)c3cc[nH]c3n2)n1
Q: Order the records by pIC50, with each subsequent value no larger than the one before. Answer format: the labels, ordered as requested.
A: 2, 3, 1

Ref: patent US8314112B2
